src = patent US8188085B2

# TARGET_OR_SYSTEM: glucan synthase (GS) prepared from Candida albicans MY1055 (Candida albicans)
# Sequence (O13428 1-1897): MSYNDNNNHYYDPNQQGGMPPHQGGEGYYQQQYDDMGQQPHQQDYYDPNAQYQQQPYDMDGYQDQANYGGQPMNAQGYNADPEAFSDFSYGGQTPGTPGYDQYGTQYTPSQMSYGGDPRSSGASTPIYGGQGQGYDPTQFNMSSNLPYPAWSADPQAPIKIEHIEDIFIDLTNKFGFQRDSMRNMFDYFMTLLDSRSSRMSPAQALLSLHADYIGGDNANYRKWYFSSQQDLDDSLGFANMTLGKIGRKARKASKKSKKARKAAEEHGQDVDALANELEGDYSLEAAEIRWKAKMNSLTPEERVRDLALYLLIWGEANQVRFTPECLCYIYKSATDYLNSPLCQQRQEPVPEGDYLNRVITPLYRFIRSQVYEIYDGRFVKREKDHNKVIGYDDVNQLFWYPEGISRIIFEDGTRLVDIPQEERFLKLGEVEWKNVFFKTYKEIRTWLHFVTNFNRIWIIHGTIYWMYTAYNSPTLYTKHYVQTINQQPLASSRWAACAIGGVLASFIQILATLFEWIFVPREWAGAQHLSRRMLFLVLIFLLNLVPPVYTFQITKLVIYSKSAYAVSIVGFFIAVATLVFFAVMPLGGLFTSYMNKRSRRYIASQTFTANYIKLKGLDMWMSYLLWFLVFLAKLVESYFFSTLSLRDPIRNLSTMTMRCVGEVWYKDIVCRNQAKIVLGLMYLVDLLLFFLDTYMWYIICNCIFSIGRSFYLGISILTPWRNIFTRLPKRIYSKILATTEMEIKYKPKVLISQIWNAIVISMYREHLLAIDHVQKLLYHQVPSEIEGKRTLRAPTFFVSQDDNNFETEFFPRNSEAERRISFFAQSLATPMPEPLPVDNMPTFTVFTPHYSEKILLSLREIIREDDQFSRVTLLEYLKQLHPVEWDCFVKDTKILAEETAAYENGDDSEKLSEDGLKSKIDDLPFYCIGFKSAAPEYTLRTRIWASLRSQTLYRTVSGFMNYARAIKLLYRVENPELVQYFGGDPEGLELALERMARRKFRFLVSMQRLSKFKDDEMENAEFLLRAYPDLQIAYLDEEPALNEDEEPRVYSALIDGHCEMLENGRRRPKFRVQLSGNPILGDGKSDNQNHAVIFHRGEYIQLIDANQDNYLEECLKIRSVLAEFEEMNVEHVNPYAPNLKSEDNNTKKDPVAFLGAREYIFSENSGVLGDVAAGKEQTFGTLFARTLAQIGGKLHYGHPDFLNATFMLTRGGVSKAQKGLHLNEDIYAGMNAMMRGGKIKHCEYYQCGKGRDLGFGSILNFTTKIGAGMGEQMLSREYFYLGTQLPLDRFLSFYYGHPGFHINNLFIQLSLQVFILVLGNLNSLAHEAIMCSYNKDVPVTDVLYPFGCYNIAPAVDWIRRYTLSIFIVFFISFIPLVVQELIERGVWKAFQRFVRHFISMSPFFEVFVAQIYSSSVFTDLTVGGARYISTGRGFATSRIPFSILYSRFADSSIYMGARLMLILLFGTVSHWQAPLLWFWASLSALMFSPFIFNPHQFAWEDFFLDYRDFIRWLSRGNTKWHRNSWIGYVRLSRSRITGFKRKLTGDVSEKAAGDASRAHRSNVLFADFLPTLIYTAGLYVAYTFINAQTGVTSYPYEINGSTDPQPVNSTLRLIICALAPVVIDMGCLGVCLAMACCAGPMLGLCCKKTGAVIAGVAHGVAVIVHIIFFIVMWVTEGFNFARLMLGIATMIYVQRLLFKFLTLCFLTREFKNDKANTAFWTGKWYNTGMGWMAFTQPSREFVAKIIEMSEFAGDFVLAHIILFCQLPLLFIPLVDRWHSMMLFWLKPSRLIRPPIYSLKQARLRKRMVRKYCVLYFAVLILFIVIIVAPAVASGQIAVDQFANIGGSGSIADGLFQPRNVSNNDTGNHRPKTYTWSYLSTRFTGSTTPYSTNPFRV
# PROTOCOL: Glucan synthase inhibition (polymerization assay, 96-well)
# Type: biochemical
# CONDITION_PARAMETERS: GS from C. albicans MY1055; 60 min incubation at 22° C.; read-out: Candida Albicans GS IC50 (converted)
ENDPOINT_NAME: IC50 (µM)

The cases that follow already have their IC50 on record.
[
  {
    "SUBSTANCE_SMILES": "CC(C)[C@@H](C)[C@@]1(C)CC[C@]2(C)[C@H]3CC[C@@H]4[C@@]5(COC[C@@]4(C)[C@@H](OC[C@](C)(N)C(C)(C)C)[C@H](n4cnnc4)C5)C3=CC[C@@]2(C)[C@@H]1C(=O)O",
    "TARGET_OR_SYSTEM": "glucan synthase (GS) prepared from Candida albicans MY1055 (Candida albicans)",
    "IC50 [µM]": 0.0429
  },
  {
    "SUBSTANCE_SMILES": "CC(C)[C@@H](C)[C@@]1(C)CC[C@]2(C)[C@H]3CC[C@@H]4[C@@]5(COC[C@@]4(C)[C@@H](OC[C@](C)(N)C(C)C)[C@H](n4cc(Cl)cn4)C5)C3=CC[C@@]2(C)[C@@H]1C(=O)O",
    "TARGET_OR_SYSTEM": "glucan synthase (GS) prepared from Candida albicans MY1055 (Candida albicans)",
    "IC50 [µM]": 0.061
  },
  {
    "SUBSTANCE_SMILES": "CC(C)[C@@H](C)[C@@]1(C)CC[C@]2(C)[C@H]3CC[C@@H]4[C@@]5(COC[C@@]4(C)[C@@H](OC[C@](C)(N)C(C)(C)C)[C@H](n4ncnc4-c4ccc(C6=NCCN6)cc4)C5)C3=CC[C@@]2(C)[C@@H]1C(=O)O",
    "TARGET_OR_SYSTEM": "glucan synthase (GS) prepared from Candida albicans MY1055 (Candida albicans)",
    "IC50 [µM]": 0.000376
  }
]

(I) CC(C)[C@@H](C)[C@@]1(C)CC[C@]2(C)[C@H]3CC[C@@H]4[C@@]5(COC[C@@]4(C)[C@@H](OC[C@](C)(N)C(C)C)[C@H](n4cccn4)C5)C3=CC[C@@]2(C)[C@@H]1C(=O)O
(II) CC(C)[C@@H](C)[C@@]1(C)CC[C@]2(C)[C@H]3CC[C@@H]4[C@@]5(COC[C@@]4(C)[C@@H](OC[C@](C)(N)C(C)(C)C)[C@H](n4ncnc4C4CCOCC4)C5)C3=CC[C@@]2(C)[C@@H]1C(=O)O
Just tell me: smaller IC50 value, I or II ? Give the label of your selection. II
(II: 0.00407 µM, I: 0.0549 µM)

(I) CN[C@@](C)(CO[C@H]1[C@H](n2ncnc2C(=O)NC(C)C)C[C@@]23COC[C@]1(C)[C@@H]2CC[C@H]1C3=CC[C@@]2(C)[C@H](C(=O)O)[C@@](C)([C@H](C)C(C)C)CC[C@]12C)C(C)C
(II) CC(C)[C@@H](C)[C@@]1(C)CC[C@]2(C)[C@H]3CC[C@@H]4[C@@]5(COC[C@@]4(C)[C@@H](OC[C@](C)(N)C(C)C)[C@H](n4ncnc4-c4ccnc(-c6cccnc6)c4)C5)C3=CC[C@@]2(C)[C@@H]1C(=O)O
Just tell me: smaller IC50 value, I or II ? Give the label of your selection. II

(A) CC(C)[C@@H](C)[C@@]1(C)CC[C@]2(C)[C@H]3CC[C@@H]4[C@@]5(COC[C@@]4(C)[C@@H](OC[C@](C)(N)c4ccccc4)[C@H](n4ncnc4-c4ccncc4)C5)C3=CC[C@@]2(C)[C@@H]1C(=O)O
(B) CC(C)[C@@H](C)[C@@]1(C)CC[C@]2(C)[C@H]3CC[C@@H]4[C@@]5(COC[C@@]4(C)[C@@H](OC[C@](C)(N)C(C)C)[C@H](n4ncnc4N)C5)C3=CC[C@@]2(C)[C@@H]1C(=O)O
Compare the recorded IC50 of A and B ; state which is larger. Give the label of your selection. B
(B: 0.0153 µM, A: 0.008 µM)
